Entries and their IC50 values follow.
# Target of assay: Somatostatin receptor type 5 (Homo sapiens)
# Sequence (P35346 whole entry): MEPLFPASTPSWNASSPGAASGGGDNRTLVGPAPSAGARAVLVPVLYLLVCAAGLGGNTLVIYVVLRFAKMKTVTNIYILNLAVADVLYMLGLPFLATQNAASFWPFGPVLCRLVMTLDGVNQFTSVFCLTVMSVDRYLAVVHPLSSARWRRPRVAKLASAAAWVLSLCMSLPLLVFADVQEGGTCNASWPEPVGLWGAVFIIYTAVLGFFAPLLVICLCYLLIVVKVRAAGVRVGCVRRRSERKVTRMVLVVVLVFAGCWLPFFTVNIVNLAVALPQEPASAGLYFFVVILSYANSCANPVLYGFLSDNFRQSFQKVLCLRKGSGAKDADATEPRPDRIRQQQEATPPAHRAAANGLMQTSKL
# Test name: In vitro inhibition of [125I][Leu8,D-Trp22,Tyr25] somatostatin 28 binding to human somatostatin receptor type 5 expressed in CHO-K1 cells; (n=3)
# Assay type: cell-based
Write down the numeric answer in nM and omit the unit.

# Compound structure, Target of assay, Unit spec, Endpoint result
rows = [
    ("C[C@@H](O)[C@H](CO)NC(=O)[C@@H]1CSSC[C@H](NC(=O)[C@@H](Cc2ccccc2)NC[C@]2(O)OC[C@H](O)[C@@H](O[C@@H]3O[C@@H](CO)[C@@H](O[C@@H]4O[C@@H](CO)[C@@H](O)[C@H](O)[C@@H]4O)[C@H](O)[C@@H]3O)[C@@H]2O)C(=O)N[C@@H](Cc2ccc(O)c(I)c2)C(=O)N[C@H](Cc2c[nH]c3ccccc23)C(=O)N[C@@H](CCCCN)C(=O)N[C@@H]([C@@H](C)O)C(=O)N1", "Somatostatin receptor type 5 (Homo sapiens)", "nM", 110),
    ("C[C@@H](O)[C@H](CO)NC(=O)[C@@H]1CSSC[C@H](NC(=O)[C@@H](Cc2ccccc2)NC[C@]2(O)OC[C@H](O)[C@@H](O[C@@H]3O[C@@H](CO)[C@@H](O)[C@H](O)[C@@H]3O)[C@@H]2O)C(=O)N[C@@H](Cc2ccc(O)c(I)c2)C(=O)N[C@H](Cc2c[nH]c3ccccc23)C(=O)N[C@@H](CCCCN)C(=O)N[C@@H]([C@@H](C)O)C(=O)N1", "Somatostatin receptor type 5 (Homo sapiens)", "nM", 75),
]

What value of measured IC50 is listed for C[C@@H](O)[C@H](NC(=O)[C@@H]1CSSC[C@H](NC(=O)[C@@H](Cc2ccccc2)NC(=O)CCS[C@@H]2O[C@@H](CO)[C@@H](O)[C@H](O)[C@@H]2O)C(=O)N[C@@H](Cc2ccc(O)c(I)c2)C(=O)N[C@H](Cc2c[nH]c3ccccc23)C(=O)N[C@@H](CCCCN)C(=O)N[C@@H]([C@@H](C)O)C(=O)N1)C(=O)O ?
310

Provenance of the data: ChEMBL document CHEMBL1143592
